Where these numbers come from: patent US20250361322A1

So I've got a bunch of binders here, and I need their EC50 values.
- test system: T1, Macaca mulatta TF on RF/6A cells (Macaca mulatta (protein sequence stated …, UniProt P13726 33-294 (human entry)))
- T1 construct: Endogenous TF of the RF/6A cell line; also called TF-positive Macaca mulatta RF/6A cells; cynomolgus TF
- T1 chain: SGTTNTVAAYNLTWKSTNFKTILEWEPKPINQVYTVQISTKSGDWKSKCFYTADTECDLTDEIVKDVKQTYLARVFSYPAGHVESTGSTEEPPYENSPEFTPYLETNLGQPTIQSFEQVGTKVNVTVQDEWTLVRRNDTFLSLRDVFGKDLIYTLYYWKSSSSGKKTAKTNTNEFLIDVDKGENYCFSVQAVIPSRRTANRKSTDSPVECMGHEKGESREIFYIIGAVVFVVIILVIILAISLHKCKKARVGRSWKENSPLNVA
- assay info: flow cytometry, IgG1 titrated on TF-positive Macaca mulatta RF/6A cells, 4-parameter fit
Answers are plain numbers, in pM.

Illustrative cases are given below, each with its answer.
54E (antibody, human IgG1, V domains shown, Human IgG1; also called antibody designated 54E) VH: QVQLVQSGAEVKKPGASVKVSCKASGYTFANYYMHWVRQAPGQGLEWMGIINPSGGITVYAQKFQGRVTMTRDTSTSTVYMELSSLRSEDTAVYYCARGGSKVAALAFDIWGQGTMVTVSS VL: DIQMTQSPSSLSASVGDRVTITCQASQDISNSLNWYQQKPGKAPKLLIYDASNLETGVPSRFSGSRSGTDFTFTISSLQPEDIATYYCQQYNFHPLTFGGGTKVEIK :: 1280
25A3 (antibody, human IgG1, V domains shown, Human IgG1; also called antibody designated 25A3) VH: QVQLVQSGAEVKKPGASVKVSCKASGYTFDVYGISWVRQAPGQGLEWMGWIAPYSGNTNYAQKLQGRVTMTTDTSTSTAYMELRSLRSDDTAVYYCARDAGTYSPFGYGMDVWGQGTTVTVSS VL: DIQMTQSPSTLSASVGDRVTITCQASQSINNWLAWYQQKPGKAPKLLIYKAYNLESGVPSRFSGSGSGTEFTLTISSLQPDDFATYYCQLFQSLPPFTFGGGTKVEIK :: 270
39A (antibody, human IgG1, V domains shown, Human IgG1; also called antibody designated 39A) VH: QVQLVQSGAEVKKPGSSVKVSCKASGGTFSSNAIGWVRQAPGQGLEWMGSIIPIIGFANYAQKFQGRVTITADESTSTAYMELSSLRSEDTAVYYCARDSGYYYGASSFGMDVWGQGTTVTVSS VL: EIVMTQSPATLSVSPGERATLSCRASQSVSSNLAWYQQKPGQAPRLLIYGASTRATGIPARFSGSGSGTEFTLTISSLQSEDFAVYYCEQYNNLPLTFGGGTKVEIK :: 270

Briefly, EC50 measured for 25G1 (antibody, human IgG1, V domains shown, Human IgG1; also called antibody designated 25G1) VH: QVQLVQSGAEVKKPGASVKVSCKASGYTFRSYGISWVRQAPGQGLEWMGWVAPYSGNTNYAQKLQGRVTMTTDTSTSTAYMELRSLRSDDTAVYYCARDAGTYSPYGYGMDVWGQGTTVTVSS VL: DIQMTQSPSTLSASVGDRVTITCRASHSIDSWLAWYQQKPGKAPKLLIYKASYLESGVPSRFSGSGSGTEFTLTISSLQPDDFATYYCQLFQSLPPFTFGGGTKVEIK : 270
